Cited source for all entries: the nanobody polyreactivity screen of Harvey et al. (2022)

Test: yeast display, Sf9 membrane polyspecificity reagent, FACS + sequencing; frameworks hold sequencing errors
ENDPOINT_LABEL: polyreactivity (PSR sort gate)

Study these solved cases before continuing.
>>> result_value("QVQLVESGGGLVQAGGSLRLSCAASGSIFSGNVMGWYRQAPGKERELVAAISGRGGSTYYADSVKGRFTISRDNAKNTVYLQMNSLKPEDTAVYYCAAVYLKTYYWGQGTQVTVSS")
"high polyreactivity"
>>> result_value("QVQLVESGGGLVQAGGSLRLSCAASGNTFNIYAMGWYRQAPGKETEFVAAITVSDTSTYYADSVKGRFTISRDSAKNTVYLQMKSLKPEDTAVYYCNADWWGTYDYYYWGQGTHVTVSS")
"low polyreactivity"
>>> result_value("QVQLVESGGGLVKAGGSLRLSCAASGRIFRYYAMGRYRQAPGKEREFVAAISTDGGRTYYADSVKGRFTISRDNAKNTVYLQMNSLKPEDTAVYYCAIYPGISGYNYWGQGTQVTVSS")
"high polyreactivity"
>>> result_value("QVQLVESGGGLVQAGGSLRLSCAASGRTFGKYAMAWYRQAPGKERELVAAITTRVVITYYADSVKGRFTISRDNAKNTVYLQMNSLKPEDTAVYYCAADPEKIYRPVNHYYYWGQGTQVTVSS")
"low polyreactivity"
>>> result_value("QVHLVESGGGLVQAGGSLRLSCAASGGIFYTYAMGWYRQAPGKEREMVAAISWRGGSTYYADSVKGRFTISRDNAKNTVYLQMNSLNPEDSAVYYCNKVTDYYYQIYWSYPYFTPDYFWGQGTQVTVSS")
"high polyreactivity"
>>> result_value("QVQLVESGGGLVQAGGSLRLSCAASGSIFDSNAMGWYRQAPGKERELVADIRGIGGSTYYADSVKGRFTISRDHAKNTVYLQMNSLKPEDTAVYYCNTSTLGGYYWGQGTQVTVSS")
"low polyreactivity"

Each sequence below has a recorded value; state its polyreactivity (PSR sort gate).
1. QVHLVESGGGLVQAGGSLRLSCAASGFTILTYGMGWYRQAPGKERELVAAIRWSGGRTYYADSVKGRFTISRDNAKNTVYLQMNSLKPEDTAVYYCAARYKFSTIRGVDYWGQGTQVTVSS
2. QVQLVESGGGLVQAGGSLRLSCAASGRIFVRYAMGWYRQAPGKERELVAAISKSGGSTYYADSVKGRFTISRDNAKNTVYLQMNSLKPEDTAVYYCNALVRRRPGYIRYDYWGQGTQVTVSS
3. QVQLVESWGGLVQAGGSLRLSCAASGRIFDRYAMGWYRQAPGKERELVASISSGGSTYYADSVKGRFTISRDNAKNTVYLQMNSLKPEDTAVYYCNAEARSRRYRYEYWGQGTQVTVSS
4. QVQLVESGGGLVQAGGSLRLSCAASGNTFAENDMGWYRQAPGKERELVAAITYSGGDTYYADSVKGRFTISRDNAKNTVYLQMNSLKPEDTAVYYCAADNGSKEFDYWGQGTQVTVSS
5. QVQLVESGGGLVQAGGSLRLSCAASGSTFASNAMGWYRQAPGKERELVATINGDGSTNYADSVKGRFTISRDNAKNTVYLQMNSLKPEDTAVYYCNARYDYYGFWYQPYTLEVDYWGQGTQVTVSS

Result ::
["high polyreactivity", "low polyreactivity", "high polyreactivity", "low polyreactivity", "low polyreactivity"]

---

Test: yeast display, Sf9 membrane polyspecificity reagent, FACS + sequencing; frameworks hold sequencing errors
ENDPOINT_LABEL: polyreactivity (PSR sort gate)

Study these solved cases before continuing.
>>> result_value("QVQLVESGGGLVQAGGSLRLSCAASGSTIYYNAMGWYRQAPGKERELVARISRSGGSTYADSVKGRFTISRDNAKNTVYLQMNSVKPEDTAVYYCNADAYGTPEFSSYAVRYDYWGQGTQVTVSS")
"low polyreactivity"
>>> result_value("QVQLVESGGGLVQAGGSLRLSCAASGITFRVYAMGWYRQAPGKERELVADISGTGGSTYYADSVKGRFTISRDYAKNTVYLQMNSLKPEDTAVYYCAAVYGFYYSFLQDSYGYWGQGTQVTVSS")
"low polyreactivity"
>>> result_value("QVQLVESGGVLVQAGGSLRLSCAASGSTFFLYMGWYRQAPGKERELVAAITVSGRSTYYADSVKGRFTISRDNAKNTVYLQMNSLKPEDTAVYYCNADWVLRYDYWGQGTQVTVSS")
"low polyreactivity"
>>> result_value("QVQLVESGGGLVQAGGSLRLSCAASGSIFWRNTMGWYRQAPGKEREFVAAISSNGGGTYYADSVKGRFTISRDKAKNTVYLQTNSLKPEDTAVYYFAATAGGSYKLWYYYWGQGTQVTVSS")
"high polyreactivity"

Turning to the following sequence.
Query :: Entry QVQLVESWGGLVQAGGSLRLSCAASGSIFRGYAMGWYRQAPGKGRELVAAISWSGASTYYADSVKGRFTISRDNAKNTVYLKMNSLKPEDTAVYYCAAVQWTGYPFDYWGQGTQVTVSS : reported polyreactivity (PSR sort gate) = ?
Result :: high polyreactivity

---

Assay: yeast display, Sf9 membrane polyspecificity reagent, FACS + sequencing; frameworks hold sequencing errors
ENDPOINT_LABEL: polyreactivity (PSR sort gate)

Study these solved cases before continuing.
>>> result_value("QFQLVESGGGLVHAGGSLRLICAASGRTFVYNAMGWYRQAPGKERDLVAAISFGGGNTYYADSVKGRFTISRDNAKNTVYLQMNCLKPEDTAVYYCAKAYIGYWGASCYYAYDYWGQGTQVTVSS")
"low polyreactivity"
>>> result_value("QVQLVESGGGLVQAGGSLRLSCAASGFTFYSYARGWYRQAPGKERELVAVINSSGGRTFYADSVKGRFTISRDNAKNTVYLQMNSLKPEDTAVYYCAARYAASRGPNQGKGNYWGQGTQVTVSS")
"high polyreactivity"
>>> result_value("QVQLVESGGGLVQAGGSLRLSCAASGSTFGSYAMGWYRQAPGKERELVAAITSSGGRTYYADSVKGRFTISRDNSKNTVYLQMNSLKPEDTAVYYCAARPRGGVFEYGYWGQGTQVTVSS")
"high polyreactivity"
>>> result_value("HVQLQESGGGLVQAGGSLRLSCAASGSIFQATYMGWYRQAPGKEREFVASITYGSITNYADSVKGRFTIGRDNAKETLYLQMNSLKPEDTAVYYCAVDRHYIPAFHYWGQGTQVTVSS")
"low polyreactivity"
>>> result_value("QVQLVESGGGLVQAGGRLRLSCADSGSTFVNSVMGWYRPAPGKERELVAGIRFRGGRTYYADSVKGRFTISRDNAKNTVYLQMNSLKPEDTAVYYCAKVQRQSVGFDYWGQGTQVTVSS")
"high polyreactivity"

Each sequence below has a recorded value; state its polyreactivity (PSR sort gate).
1. QVQLVESGGGLVQAGGRLRLSCAASGSTFGLNAMGRYRHAPGKEREFVASINFNDGSTYYADSVKGRFTISRDNAKNTVYLRMNSLKPEDTAVYYCAVELWWKWPFYYWGQGTQVTVSS
2. QVQLVESGGGLVQAGGSLRLSCAASGSTYVSNAMGWYRQAPGKERELVAAISTSGGTTYYADSVKGRFTISRDNAKNTVYLQMNSLKPEDTAVYYCAADYKAYGRSYDYWGQGTQVTVSS
3. QVQLVESGGGLVQAGGSLRLSCAASGSTFDSYVMGLYRQAPGKERELFAAISSDDSTYYADSVKGRFTISRDNAKNTVYLQMNSLKPEDTAVYYCAATNFRDYYWSWKYYYWGQGTQVTVSS
4. QVQLEESGGGLVQAGGSLRLSCAASGYTSLYYGMGWYRQAPGKERELVASISRGGSTYADSVKGRFTISRDNAKNTVYLLMNRLKPEDTAVYYCNADGGWDDPWSGWVEYDYWGQGTQVTGSS
5. QVQLVESGGGLVQAGGSLRLSCAASGSIFRGNAMGWYRQAPGKERELVAAISKSGGSTYYADSVKGRFTISRDNAKNTVYLQMNSLKPEDTAVYYCAARTTYLYGMYYWGQGTQVTVSS
6. QVQLVESGGGLVEPGGSLRLSFASSGRTYQFYVMGWSRQAPGKERELVASIRSGGSTNYADSVKGRFTISRDNAKNTVYLLMNSLKPEDTALYYCAARVASPYYRYVYWGKGTQVTVSS
7. QVQLVESGGGLVQAGGSRRLSCAASGNTFYGYAMGWYRQAPGKERELVASITMSGDSTYYADSVKGRFTISRDNAKNTVYLQMNSLKPEYTSVYYCAGVYTYPLGYYHYTYDYWGQGTQVTVSS

Result ::
high polyreactivity
low polyreactivity
low polyreactivity
low polyreactivity
low polyreactivity
low polyreactivity
low polyreactivity

Each sequence below has a recorded value; state its polyreactivity (PSR sort gate).
1. QVQLVESGGGLVQAGGSLRLSCAASGLILSAYAMGWYRQAPGKERELVAAISGSGGRTYYADSVKGRFTISRDNAKNTVYLQMNSLKPEDTAVYYCAAPYTYVGSYTYNYWGQGTQVTVSS
2. QVQLVESGGGLVQAGGSLRLSCAASGSTFDYNAMGWYRQAPGKERELVAAITTVGITYYADSVKGRFTISRDNAKNTVYLQMNSLKPEDTAVYYCAARSVRYGGRYDYWGQGTQVTVSS
3. QVQLVESGGGLVQAGGSLRLSCAASGSIFTYYDMGWYRQAPGKEREWVAGISRRGSTYYADSVKGRFTISRDNAKNTVYLQMNSLKPEDTAVYYCAADPWVGTLYPRVGYWGQGTQVTVSS
4. QVQLVESGGGLVQAGGSLRLSCAASGSTFRKYAMGWYRQAPGKERELVATISRGTSTYYADSVKGRFTISRDNAKNTVYLQMNSLKPEDTAVYYCNAGYYNKRDGGYTYNYWGQGTQVTVSS

Result ::
high polyreactivity
high polyreactivity
low polyreactivity
low polyreactivity

Each sequence below has a recorded value; state its polyreactivity (PSR sort gate).
1. QVQLVESGGGLDQAGGSLRLSCAASGSTFTRNAMRWYRQAPGKERELVATISSGGSTNYADSVKGRFTISRDNAKNTVYLQMNSLKPEDTAVYYCAKRSLYSYYYWGQGTQVTVSS
2. QVQLEESGGGLVQAGVSLRLSCAASGRIFSSNAMGWYRQAPGKERELVAAITYSAGSTYYAVSVKGRFTISRDNAKNTVYLQMNSLKPEDTAVYYCAADSYYDRTIQFEFYARTYDYWGQGTQVTVSS
3. QVQLVESGGGLVQAGGSLRLTCAASAFTFKLYVMGWYRHATGKERQFDAGITKRGGRTYYADSVKGRFTISRDNAKNTFYLQMNSLKPEDTAVYYCSAGTRIYNSCIRFDYWGQGTQVTVSS
4. QVQLVESGGGLVQAGGSLRLSCAASGRSFDWDVLGWYSQVPGKERELVAAIDDSGGSTYYADSVKGRFTISRDNAKNTVYLQMNSLKPEDTAVYYCAAASYEYALDEHMDYWGQGTQVTGSS

Result ::
["high polyreactivity", "low polyreactivity", "high polyreactivity", "low polyreactivity"]

Query :: Entry QLQLVESGGGLVQAGGSLRLSCAASGSTYHINAMGWYRQAPGKERELVADINWSGGSTYYADSVKGRFTISRDNAKNTVYLQMNSLKPEDTAVYYCAADVGVFTYSPYDAGEHDYWGQGTQVTVSS : reported polyreactivity (PSR sort gate) = ?
Result :: low polyreactivity
